system: Vero E6; experiment: cell viability relative to DMSO; higher = less toxic; conditions: 72 h; 100 nM
Recorded measurements of cell viability, one per entry
property: cell viability (%)

# compound, property, endpoint unit, assay value
data = [
    ("COc1cccc(C=NCCN=Cc2cccc(OC)c2[O-])c1[O-].[Cl-].[Mn+3]", "cell viability", "%", 99.3),
    ("C[N+]1([O-])[C@@H]2CC[C@H]1C[C@@H](OC(=O)C(CO)c1ccccc1)C2 (some centres not stated) [atropine-oxide]", "cell viability", "%", 102),
    ("C=CCNc1c(O)cc2c(O)c1C[C@@H](C)C[C@H](OC)[C@H](O)[C@@H](C)/C=C(\\C)[C@H](OC(N)=O)[C@@H](OC)/C=C\\C=C(/C)C(=O)N2", "cell viability", "%", 104),
    ("NC(=O)NO [hydroxyurea]", "cell viability", "%", 101),
    ("CC[N+](CC)(CC)CC(=O)Nc1c(C)cccc1C", "cell viability", "%", 93.7),
    ("O=C1CCC[C@@H]2[C@H]3CCC[N+]4([O-])CCC[C@@H](CN12)[C@@H]34 (some centres not stated)", "cell viability", "%", 101),
    ("CC(C)C[C@H](NC(=O)N1CCCCCC1)C(=O)N[C@H](Cc1cn(C)c2ccccc12)C(=O)N[C@H](Cc1ccccn1)C(=O)O", "cell viability", "%", 100),
    ("OC[C@H]1O[C@@H](Oc2cc3c(O)cc(O)cc3[o+]c2-c2ccc(O)c(O)c2)[C@H](O)[C@@H](O)[C@@H]1O", "cell viability", "%", 103),
    ("CCCN(CCC)C(=O)Cc1c(-c2ccc(Cl)cc2)nc2ccc(Cl)cn12", "cell viability", "%", 104),
    ("Cc1ccc(-c2nn(C(C)(C)C)c3ncnc(N)c23)cc1", "cell viability", "%", 103),
    ("O=C(O)COc1cccc(CN(Cc2ccc(-n3cccn3)cc2)S(=O)(=O)c2cccnc2)c1", "cell viability", "%", 97.5),
    ("O=c1c(-n2ccnn2)c[nH]n1-c1cc(N2CCOCC2)ncn1", "cell viability", "%", 104),
    ("CCCC(=O)N1CCCN(c2nc(N)c3cc(OC)c(OC)cc3n2)CC1", "cell viability", "%", 102),
    ("Nc1nc2[nH]cnc2c(=S)[nH]1", "cell viability", "%", 92.3),
    ("C[C@H](NC(=O)c1sccc1OCc1ccc(Cl)cc1)c1ccccc1", "cell viability", "%", 108),
    ("CN1C(=O)N(c2cc(Cl)cc(Cl)c2)C(=O)[C@]12CN(c1ccc(C(=O)O)cn1)C[C@H]2c1ccc(C#N)cc1", "cell viability", "%", 101),
    ("C[C@@]1(CO)[C@H](O)CC[C@@]2(C)[C@H]1CC[C@H]1C[C@@H]3C[C@@]12CC[C@]3(O)CO", "cell viability", "%", 100),
]

Every entry's value here was drawn from the supplement of paper PMC13380429.
